Experiment Summary: DUSP6 inhibitors restoring Erk phosphorylation by chemical complementation, primary imaging in DUSP6-transfected HeLa (AID 609)
Conditions Used: HeLa MKP-3 transfected, phospho-Erk imaging KS statistic; measured here: nuclear c-Myc green intensity z-score; at 10 µM; cells stimulated with TPA for 15 min
I'd appreciate it if you could supply z-score values for the items below.
Give bare numbers.

Please give z-score, item by item, for the list that follows.
1. COc1ccc2[nH]c(C)c(C(=O)CN3CCN(C(=O)c4ccco4)CC3)c2c1
2. Cc1cccc(OCC(=O)N2CCC(N3CCOCC3)CC2)c1

1. -0.714
2. -1.72

Please give z-score, item by item, for the list that follows.
1. COc1cc(C2NC(=O)NC(C)=C2C(=O)Nc2cccc(C)c2C)cc(OC)c1OC (stereo unspecified)
2. Cc1c(C)c2cc(Cl)c(O)c(CN3CCN(C)CC3)c2oc1=O
3. CS(=O)(=O)Nc1ccc([N+](=O)[O-])cc1Oc1ccccc1
4. CC(Cc1ccc(O)c(O)c1)C(C)Cc1ccc(O)c(O)c1 (stereo unspecified)

[0.344, -0.256, 1.09, 0.39]

Please give z-score, item by item, for the list that follows.
1. CC1(C)CC(=O)c2cc(C(=O)N3CCCC(C)(C)C3)c(=O)n(-c3ccccc3)c2C1
2. CC(CN1c2ccccc2Sc2ccccc21)N(C)C (stereo unspecified)
3. CC1CN(C2CCN(S(=O)(=O)Cc3ccccc3)CC2)CC(C)O1 (stereo unspecified)
4. CCCOC(=O)CSC1=C(C#N)C(c2ccccc2OCC)C(C#N)C(=O)N1 (stereo unspecified)
5. CN(C1CCS(=O)(=O)C1)S(=O)(=O)c1cccc2nsnc12 (stereo unspecified)

1. 0.18
2. -0.736
3. 0.313
4. -0.531
5. 0.807

Reference source for all entries: PubChem BioAssay
